Cited source for all entries: patent US10428081B2

# SYSTEM NAME: exon 20 T790M mutant-type EGFR enzyme (Homo sapiens, UniProt P00533, T790M)
# Sequence (P00533 25-1210 T790M): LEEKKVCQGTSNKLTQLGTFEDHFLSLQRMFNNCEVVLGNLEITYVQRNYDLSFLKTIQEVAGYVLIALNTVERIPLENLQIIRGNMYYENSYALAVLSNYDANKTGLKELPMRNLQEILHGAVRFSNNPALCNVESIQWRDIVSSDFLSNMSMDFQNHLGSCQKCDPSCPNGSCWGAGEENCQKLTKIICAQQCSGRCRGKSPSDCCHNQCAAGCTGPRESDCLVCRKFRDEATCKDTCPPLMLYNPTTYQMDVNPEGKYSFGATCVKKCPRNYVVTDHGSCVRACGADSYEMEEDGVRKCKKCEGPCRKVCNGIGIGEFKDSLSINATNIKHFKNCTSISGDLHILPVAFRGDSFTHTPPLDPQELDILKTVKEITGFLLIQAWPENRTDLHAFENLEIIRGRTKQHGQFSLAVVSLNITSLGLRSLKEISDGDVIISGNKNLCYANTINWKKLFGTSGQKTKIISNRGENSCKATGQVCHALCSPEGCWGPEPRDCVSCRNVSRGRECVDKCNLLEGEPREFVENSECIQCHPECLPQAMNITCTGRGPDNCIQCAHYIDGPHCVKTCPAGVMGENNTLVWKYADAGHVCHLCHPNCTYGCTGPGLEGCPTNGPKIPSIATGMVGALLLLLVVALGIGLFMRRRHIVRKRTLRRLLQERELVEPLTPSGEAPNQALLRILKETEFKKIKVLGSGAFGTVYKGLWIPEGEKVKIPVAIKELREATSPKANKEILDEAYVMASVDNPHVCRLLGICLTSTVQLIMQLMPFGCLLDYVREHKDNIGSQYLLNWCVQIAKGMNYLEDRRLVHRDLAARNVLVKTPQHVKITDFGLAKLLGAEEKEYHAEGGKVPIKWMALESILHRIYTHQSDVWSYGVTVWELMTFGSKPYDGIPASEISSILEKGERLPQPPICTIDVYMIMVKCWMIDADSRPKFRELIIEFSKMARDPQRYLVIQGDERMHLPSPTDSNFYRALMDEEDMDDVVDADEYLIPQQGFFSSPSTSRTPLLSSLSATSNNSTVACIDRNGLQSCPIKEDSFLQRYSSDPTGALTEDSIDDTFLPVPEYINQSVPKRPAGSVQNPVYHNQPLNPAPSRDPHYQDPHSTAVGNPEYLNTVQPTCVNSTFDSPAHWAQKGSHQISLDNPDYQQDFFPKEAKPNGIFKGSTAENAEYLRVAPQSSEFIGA
# ASSAY NAME: Enzymologic experiment of T790M mutant-type EGFR (TR-FRET)
# Format: biochemical
# DETAILS: T790M EGFR enzyme, TR-FRET, ATP 1 to 10 uM
OBSERVATION TYPE: IC50 (nM)

Known results for compounds:
Value of measured IC50 for the entry `C=CC(=O)Nc1cc(Nc2nccc(-n3cnc4ccc(OC)cc43)n2)c(OC)cc1N(C)CCN(C)C` : 0.33

Value of measured IC50 for the entry `C=CC(=O)Nc1cc(Nc2nccc(-c3c[nH]c4cc(OC)ccc34)n2)c(OC)cc1N(C)CCN(C)C` : 0.18

Value of measured IC50 for the entry `COc1cc(N(C)CCN(C)C)c(NC(=O)/C=C/CN(C)C)cc1Nc1nccc(-c2cn(C3CC3)c3ccccc23)n1` : 0.49

Value of measured IC50 for the entry `C=CC(=O)Nc1cc(Nc2nccc(-c3cn(C)c4ccccc34)n2)c(OC(F)F)cc1N1CCN(C)CC1` : 9.26

Value of measured IC50 for the entry `C=CC(=O)Nc1cc(Nc2nccc(-c3cn(C)c4cc(C=C)ccc34)n2)c(OC)cc1N(C)CCN(C)C` : 1.57

A. C=CC(=O)Nc1cc(Nc2nccc(-c3cn(C)c4ccc(OC)cc34)n2)c(OC)cc1N(C)CCN(C)C
B. C=CC(=O)Nc1cc(Nc2nccc(-c3nn(C4CC4)c4ccccc34)n2)c(OC)cc1N(C)CCN(C)C
Compare A and B and name the one whose reported IC50 is smaller. Return value: the label identifying the chosen record.
B
(B: 0.47 nM, A: 3.53 nM)
